These data points were gathered from patent US20260374754A1.

target: human activated kallikrein enzyme (Homo sapiens, UniProt P03952); experiment: Inhibition of human activated plasma kallikrein, fluorogenic PFR-AMC substrate, 500 pM enzyme format; assay type: biochemical; conditions: 500 pM activated kallikrein; 300 μM PFR-AMC; 30 min preincubation; 10 min room temperature; pH 7.5; read-out: Primary Dose Response Assay: Average EC50
Sequence (P03952 391-638 limits assumed): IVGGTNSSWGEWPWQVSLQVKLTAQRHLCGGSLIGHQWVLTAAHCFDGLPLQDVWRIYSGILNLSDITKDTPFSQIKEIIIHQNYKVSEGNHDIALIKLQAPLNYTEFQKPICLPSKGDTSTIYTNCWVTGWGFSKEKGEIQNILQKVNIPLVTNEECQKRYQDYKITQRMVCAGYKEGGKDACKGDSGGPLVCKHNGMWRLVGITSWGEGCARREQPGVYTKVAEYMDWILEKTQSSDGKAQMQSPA
Sequence (P03952 20-390 partner limits assumed): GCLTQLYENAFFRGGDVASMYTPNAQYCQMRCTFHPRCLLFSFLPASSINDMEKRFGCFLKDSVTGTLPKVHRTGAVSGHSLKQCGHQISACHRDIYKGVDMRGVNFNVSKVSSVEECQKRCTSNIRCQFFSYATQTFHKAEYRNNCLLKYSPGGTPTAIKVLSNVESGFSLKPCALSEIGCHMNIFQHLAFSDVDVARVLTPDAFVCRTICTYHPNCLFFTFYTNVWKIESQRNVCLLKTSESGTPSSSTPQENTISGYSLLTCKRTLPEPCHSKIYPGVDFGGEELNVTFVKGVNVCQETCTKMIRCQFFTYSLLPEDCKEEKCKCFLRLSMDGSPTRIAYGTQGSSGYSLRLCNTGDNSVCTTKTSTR
pEC50: −log10 of the molar value.
value-kind: pEC50

Dear colleague, I am looking for the recorded pEC50 of the following molecule: `Cc1cc2c(N)nccc2c(C)c1CNC(=O)c1cnn(Cc2ccccc2)c1`
6.00 to 7.00

Could you tell me which pEC50 is on file for `Cc1cc2c(N)nccc2c(C)c1CNc1cc2c(cn1)c(F)cn2Cc1cn2cc(C3CC3)ccc2n1` ?
8.00 to 9.00

State the recorded pEC50 for this entry: `Cc1cc2c(N)nccc2c(C)c1CNc1cc(OCc2cnc3ccc(F)cc3c2)cnn1`
> 9.00

Recorded pEC50 of `Cc1cc2c(N)nccc2c(C)c1CNc1cc2c(ccn2Cc2cc3cc(C4CC4)cnc3s2)cn1` , please.
8.00 to 9.00
